Here the recorded MIC is given for each entry.
Tested on: STAPHYLOCOCCUS EPIDERMIDIS 3519
Assay type: cell-based
Conditions: S. epidermidis 3519; BHI agar; unit assumed
reportedProperty: MIC (µg/mL)

{"molecule": "CC[C@H]1OC(=O)[C@H](C)C(=O)[C@H](C)[C@@H](O[C@@H]2O[C@H](C)C[C@H](N(C)C)[C@H]2O)[C@](C)(OC)C[C@@H](C)C2=N[C@H](Cc3ccccc3)CN3C(=O)O[C@@]1(C)[C@H]3[C@H]2C [Example 3]", "reportedProperty": "MIC", "valueReported": 0.39}
{"molecule": "CC[C@H]1OC(=O)[C@H](C)C(=O)[C@H](C)[C@@H](O[C@@H]2O[C@H](C)C[C@H](N(C)C)[C@H]2O)[C@](C)(OC)C[C@@H](C)C2=NCC(COC(=O)c3ccc4ccccc4n3)N3C(=O)O[C@@]1(C)[C@H]3[C@H]2C (some centres unmarked) [Example 142]", "reportedProperty": "MIC", "valueReported": 0.2}
{"molecule": "C#CCN1CC2N=C3[C@H](C)C[C@@](C)(OC)[C@H](O[C@@H]4O[C@H](C)C[C@H](N(C)C)[C@H]4O)[C@@H](C)C(=O)[C@@H](C)C(=O)O[C@H](CC)[C@@]4(C)OC(=O)N(C2C1)[C@@H]4[C@H]3C (some centres unmarked) [Example 117]", "reportedProperty": "MIC", "valueReported": 1.56}
{"molecule": "CCC1OC(=O)C(C)C(=O)C(C)C(OC2OC(C)CC(N(C)C)C2O)C(C)(OC)CC(C)C2=NC(CCOc3ccccc3)CN3C(=O)OC1(C)C3C2C (centres unmarked) [Example 91]", "reportedProperty": "MIC", "valueReported": 0.78}
{"molecule": "CC[C@H]1OC(=O)[C@H](C)C(=O)[C@H](C)[C@@H](O[C@@H]2O[C@H](C)C[C@H](N(C)C)[C@H]2O)[C@](C)(OC)C[C@@H](C)C2=NC[C@H](Cc3ccc(OCc4ccccc4)cc3)N3C(=O)O[C@@]1(C)[C@H]3[C@H]2C [Example 64]", "reportedProperty": "MIC", "valueReported": 0.39}
{"molecule": "CC[C@H]1OC(=O)[C@H](C)C(=O)[C@H](C)[C@@H](O[C@@H]2O[C@H](C)C[C@H](N(C)C)[C@H]2O)[C@](C)(OC)C[C@@H](C)C2=NC[C@H](COCc3ccc(F)cc3)N3C(=O)O[C@@]1(C)[C@H]3[C@H]2C [Example 71]", "reportedProperty": "MIC", "valueReported": 0.1}
{"molecule": "CC[C@H]1OC(=O)[C@H](C)C(=O)[C@H](C)[C@@H](O[C@@H]2O[C@H](C)C[C@H](N(C)C)[C@H]2O)[C@](C)(OC)C[C@@H](C)C2=NC3CN(C(C)=O)CC3N3C(=O)O[C@@]1(C)[C@H]3[C@H]2C (some centres unmarked) [Example 125]", "reportedProperty": "MIC", "valueReported": 6.2}
{"molecule": "CC[C@H]1OC(=O)[C@H](C)C(=O)[C@H](C)[C@@H](O[C@@H]2O[C@H](C)C[C@H](N(C)C)[C@H]2O)[C@](C)(OC)C[C@@H](C)C2=N[C@H](CN3CCOCC3)CN3C(=O)O[C@@]1(C)[C@H]3[C@H]2C [Example 95]", "reportedProperty": "MIC", "valueReported": 0.39}
{"molecule": "CC[C@H]1OC(=O)[C@H](C)C(=O)[C@H](C)[C@@H](O[C@@H]2O[C@H](C)C[C@H](N(C)C)[C@H]2O)[C@](C)(OC)C[C@@H](C)C2=NC3CN(CCOc4ccccc4)CC3N3C(=O)O[C@@]1(C)[C@H]3[C@H]2C (some centres unmarked) [Example 128]", "reportedProperty": "MIC", "valueReported": 0.39}
{"molecule": "CC[C@H]1OC(=O)[C@H](C)C(=O)[C@H](C)[C@@H](O[C@@H]2O[C@H](C)C[C@H](N(C)C)[C@H]2O)[C@](C)(OC)C[C@@H](C)C2=NC3CNCC3N3C(=O)O[C@@]1(C)[C@H]3[C@H]2C (some centres unmarked) [Example 109]", "reportedProperty": "MIC", "valueReported": 0.39}
{"molecule": "CC[C@H]1OC(=O)[C@H](C)C(=O)[C@H](C)[C@@H](O[C@@H]2O[C@H](C)C[C@H](N(C)C)[C@H]2O)[C@](C)(OC)C[C@@H](C)C2=NC3CN(CC(OC)OC)CC3N3C(=O)O[C@@]1(C)[C@H]3[C@H]2C (some centres unmarked) [Example 127]", "reportedProperty": "MIC", "valueReported": 1.56}
{"molecule": "CC[C@H]1OC(=O)[C@H](C)C(=O)[C@H](C)[C@@H](O[C@@H]2O[C@H](C)C[C@H](N(C)C)[C@H]2O)[C@](C)(OC)C[C@@H](C)C2=NCC(CNCc3ccccc3)N3C(=O)O[C@@]1(C)[C@H]3[C@H]2C (some centres unmarked) [Example 131]", "reportedProperty": "MIC", "valueReported": 0.39}
{"molecule": "CC[C@H]1OC(=O)[C@H](C)C(=O)[C@H](C)[C@@H](O[C@@H]2O[C@H](C)C[C@H](N(C)C)[C@H]2O)[C@](C)(OC)C[C@@H](C)C2=NC[C@@H](Cc3ccccc3)N3C(=O)O[C@@]1(C)[C@H]3[C@H]2C [Example 6]", "reportedProperty": "MIC", "valueReported": 0.1}
{"molecule": "CC[C@H]1OC(=O)[C@H](C)C(=O)[C@H](C)[C@@H](O[C@@H]2O[C@H](C)C[C@H](N(C)C)[C@H]2O)[C@](C)(OC)C[C@@H](C)C2=NC[C@H](Cc3ccc(I)cc3)N3C(=O)O[C@@]1(C)[C@H]3[C@H]2C [Example 70]", "reportedProperty": "MIC", "valueReported": 0.2}
{"molecule": "CCC1OC(=O)C(C)C(=O)C(C)C(OC2OC(C)CC(N(C)C)C2O)C(C)(OC)CC(C)C2=NCC(CSc3ccccc3)(CN(C)C)N3C(=O)OC1(C)C3C2C (centres unmarked) [Example 135]", "reportedProperty": "MIC", "valueReported": 3.1}
{"molecule": "CC[C@H]1OC(=O)[C@H](C)C(=O)[C@H](C)[C@@H](O[C@@H]2O[C@H](C)C[C@H](N(C)C)[C@H]2O)[C@](C)(OC)C[C@@H](C)C2=N[C@H](COCc3ccccc3Cl)CN3C(=O)O[C@@]1(C)[C@H]3[C@H]2C [Example 78]", "reportedProperty": "MIC", "valueReported": 0.39}
{"molecule": "CC[C@H]1OC(=O)[C@H](C)C(=O)[C@H](C)[C@@H](O[C@@H]2O[C@H](C)C[C@H](N(C)C)[C@H]2O)[C@](C)(OC)C[C@@H](C)C2=NC3CN(S(=O)(=O)Cc4ccccc4[N+](=O)[O-])CC3N3C(=O)O[C@@]1(C)[C@H]3[C@H]2C (some centres unmarked) [Example 123]", "reportedProperty": "MIC", "valueReported": 3.1}
